Molecular target: human NKp30 (human) (UniProt O14931)
Sequence (O14931 19-135 limits assumed): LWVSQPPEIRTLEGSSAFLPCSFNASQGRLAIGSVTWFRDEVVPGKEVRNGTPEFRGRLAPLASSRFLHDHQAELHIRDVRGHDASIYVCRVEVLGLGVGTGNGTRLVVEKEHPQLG
Assay: BLI, ratio to ΔB7-H6_wt
measured.property: x-fold KD improvement

Q: Please give the measured x-fold KD improvement for this binder: ΔB7-H6_S3#12-SEED-PGLALA (bispecific antibody, part only; not given: SEED Fc chains and hu225 Fab, part only) chain, part: DLKVEMMAGGTQITPLNDNVTIFCNIFYSQPLNITEMGITWFWKSLTFDKEVKVFEFFGDHQEAFRPGAIVSPWRLKSGDASLRLPGIQLEEAGEYRCEVVVTPYKAQGTVQLEVVASPAS
Ans: 3.2 fold

Q: Please give the measured x-fold KD improvement for this binder: ΔB7-H6_S2#7-SEED-PGLALA (bispecific antibody, part only; not given: SEED Fc chains and hu225 Fab, part only) chain, part: DLKVEMMAGGTQITPLNDNVTIFCNIFYSQPLNITSMGITWFWKSLTFDKEVKVFEFYGDHQEAFRPGAIVSPWRLKSGDASLRLPGIQLEEAGEYRCEVIVTPYKAQGTVQLEVVTSPAS
Ans: 2.1 fold

Reference source: patent US20230287082A1
